- Assay Procedure: soluble fraction after stress (log2 fold change); higher = more stays soluble; pooled small domains, quantitative proteomics;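 also: 20 min heating vs room temperature control held 20 min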
- Experimental Setup: stress: 75 degC
Measure Name: soluble fraction (log2)
Give the figure by itself; no unit, no explanation.

HMNFAERIKELRKEKGITQIDLAEAVGLSKGTVAMWEVDKREANFDTLNKLSDYFQVSIDYLLGRSNDRS
-0.0785
HMFEARNTTFSEDGKTITETYGVKRIETEFVSDSTIVQKLYDNDVLTKTKTITFSADGLSIKEDV
-0.0561
HMDPSVTGLLTRLGISPQTAQELAGQYEEPYILEKIAIVEAHPEYVKNAAGFVITALQEDWKD
-0.591
HMHTDQVLVMTRAVGQGEIVRNTDVGLTSVAVDRAVTTIPASQLDEIVGRHALVDLSAGQLLGSHSVGA
0.109
HMNDTPPELRAALDLLGLKWPLASVELRARYKDLAKQHHPDATGGDKQAEERLKDINRAYSLLKHRLAKQ
-0.143
HMQYTQKTMYINDSYVNLRKSASTSSDIIMVVELNTKLTVIGEDGDWYKVKTSSGNAYVLKTLLSNEKKET
-3.22

Challenge: Recorded soluble fraction (log2) for HMEDSSSILNRMRKLIALLNRASEAYYKENKEIISNFEYDRLYDELLGLESRSNTVLSGSPTYKV , please?
Response given: -1.87

Challenge: Recorded soluble fraction (log2) for HMNSRQPEEEALFELLAKNPYSDEQLEEIRIAIGSGISYKDVLVIADIKNTAKQMKKLRLKFTKDTG , please?
Response given: -0.561
